Data origin: patent US20190092852A1

In this section, each of the binders is paired with its reported koff.
Target: T1, cyno IL-33 N-His (cynomolgus monkey)
T1 chain: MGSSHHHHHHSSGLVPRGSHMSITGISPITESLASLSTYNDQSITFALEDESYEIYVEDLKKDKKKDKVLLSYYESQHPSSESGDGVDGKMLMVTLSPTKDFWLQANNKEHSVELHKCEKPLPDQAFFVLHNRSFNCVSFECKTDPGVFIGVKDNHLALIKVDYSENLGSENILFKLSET
Assay: SPR Biacore T200, 25 C

binder	unit-abbreviation	koff
H4H9659P (antibody, IgG4, V domains shown, also called RG7) VH: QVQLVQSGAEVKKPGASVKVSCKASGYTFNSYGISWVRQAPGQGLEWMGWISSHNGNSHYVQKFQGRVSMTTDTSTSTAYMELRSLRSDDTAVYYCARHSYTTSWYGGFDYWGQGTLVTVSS VL: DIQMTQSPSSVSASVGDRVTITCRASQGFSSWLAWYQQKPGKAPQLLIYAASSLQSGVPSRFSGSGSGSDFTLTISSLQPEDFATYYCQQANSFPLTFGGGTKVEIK	s⁻¹	0.000479
H4H9667P (antibody, V domains shown) VH: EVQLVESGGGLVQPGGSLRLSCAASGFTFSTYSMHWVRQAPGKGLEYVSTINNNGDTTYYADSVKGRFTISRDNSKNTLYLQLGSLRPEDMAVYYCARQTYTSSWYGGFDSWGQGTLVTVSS VL: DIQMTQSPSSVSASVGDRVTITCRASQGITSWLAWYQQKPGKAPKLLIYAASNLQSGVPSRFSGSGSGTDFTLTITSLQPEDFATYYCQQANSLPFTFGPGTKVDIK	s⁻¹	0.00059
H4H9671P (antibody, V domains shown) VH: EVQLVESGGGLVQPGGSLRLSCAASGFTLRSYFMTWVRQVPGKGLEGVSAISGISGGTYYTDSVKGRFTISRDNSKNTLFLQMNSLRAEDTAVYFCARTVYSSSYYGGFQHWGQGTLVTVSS VL: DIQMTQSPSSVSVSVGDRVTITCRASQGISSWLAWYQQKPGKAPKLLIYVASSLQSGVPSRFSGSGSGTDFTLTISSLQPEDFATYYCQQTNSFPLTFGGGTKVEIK	s⁻¹	0.000915
